Test system: MiaPaCa-2 cells
measurement.description: MTS assay of MiaPaCa2 cultures, single 50 μM dose
Type: cell-based, human
experimental.conditions: MiaPaCa2, 50 μM, 48 hours, run 9
value.kind: MTS assay result, run 9
Keep the answer to the number alone.

Below: 3 compounds and their reported MTS assay result, run 9.
>  <compound>
CC(C)=CCC/C(C)=C/CC/C(C)=C/CC[C@]1(C)CCc2cc(O)cc(C)c2O1 [T3 delta, delta tocotrienol]

>  <MTS assay result, run 9>
0.241

$$$$
>  <compound>
Cc1c(O)cc2c(c1C)O[C@](C)(CCC[C@H](C)CCC[C@H](C)CCCC(C)C)CC2 [T gamma]

>  <MTS assay result, run 9>
0.295

$$$$
>  <compound>
CC(C)=CCC/C(C)=C/CC/C(C)=C/CC[C@]1(C)CCc2c(C)c(O)cc(C)c2O1 [T3 beta, beta tocotrienol]

>  <MTS assay result, run 9>
0.222

$$$$

Request: Need MTS assay result, run 9, item O=C(O)CCC(=O)O [SA, succinic acid]
Response: 0.328

Request: Need MTS assay result, run 9, item Cc1c(C)c2c(c(C)c1OC(=O)CCC(=O)O)CC[C@@](C)(CCC[C@H](C)CCC[C@H](C)CCCC(C)C)O2 [TS, tocopherol succinate]
Response: 0.275

Request: Need MTS assay result, run 9, item CC(C)=CCC/C(C)=C/CC/C(C)=C/CC/C(C)=C/CO [GG, geranylgeraniol]
Response: 0.193

Request: Need MTS assay result, run 9, item CC(C)=CCC/C(C)=C/CC/C(C)=C/CC[C@]1(C)CCc2cc(O)c(C)c(C)c2O1 [T3 gamma, gamma tocotrienol]
Response: 0.134

Request: Need MTS assay result, run 9, item Cc1c(C)c2c(c(C)c1O)CC[C@@](C)(CCC[C@H](C)CCC[C@H](C)CCCC(C)C)O2 [T alpha, alpha tocopherol]
Response: 0.313

====

Test system: SW1990 pancreatic cancer cells
measurement.description: MTS assay of SW1990 cultures, single 50 μM dose
Type: cell-based, human
experimental.conditions: SW1990, 50 μM, 48 hours, run 3
Listing of recorded MTS assay result, run 3 by entry.
Keep the answer to the number alone.

Request: Need MTS assay result, run 3, item "CC(C)=CCC/C(C)=C/CC/C(C)=C/CC[C@]1(C)CCc2cc(O)c(C)c(C)c2O1"
Response: 0.13

Request: Need MTS assay result, run 3, item "CC(C)=CCC/C(C)=C/CC/C(C)=C/CC[C@]1(C)CCc2cc(O)cc(C)c2O1"
Response: 0.12

Request: Need MTS assay result, run 3, item "Cc1c(C)c2c(c(C)c1O)CC[C@@](C)(CCC[C@H](C)CCC[C@H](C)CCCC(C)C)O2"
Response: 0.16

Request: Need MTS assay result, run 3, item "O=C(O)CCC(=O)O"
Response: 0.17

====

Listing of recorded MTS assay result, run 5 by entry.
System: MiaPaCa-2 cells
measurement.description: MTS assay of MiaPaCa2 cultures, single 50 μM dose
Format: cell-based, human
experimental.conditions: MiaPaCa2, 50 μM, 48 hours, run 5
Protocol: MiaPaCa-2 cells were cultured in complete DMEM media containing 10% fetal bovine serum (FBS) and 1% penicillin-streptomycin, and 1% L-glutamine. BxPc-3 pancreatic cancer cells were cultured in complete RPMI media containing 10% fetal bovine serum (FBS), and 1% penicillin-streptomycin, 1% HEPES buffer, 1% sodium pyruvate and 1% L-glutamine HPDE6-C7 cells were cultured in serum-free keratinocyte SFM media. All cells were maintained at 37° C. in a humidified incubator with 5% CO2. […]

Below: 4 molecules and their reported MTS assay result, run 5.
>  <molecule>
CC(C)=CCC/C(C)=C/CC/C(C)=C/CC[C@]1(C)CCc2cc(O)c(C)c(C)c2O1 [T3 gamma, gamma tocotrienol]

>  <MTS assay result, run 5>
0.159

$$$$
>  <molecule>
CC(C)=CCC/C(C)=C/CC/C(C)=C/CC[C@]1(C)CCc2cc(O)cc(C)c2O1 [T3 delta, delta tocotrienol]

>  <MTS assay result, run 5>
0.294

$$$$
>  <molecule>
CC(C)=CCC/C(C)=C/CC/C(C)=C/CC/C(C)=C/CO [GG, geranylgeraniol]

>  <MTS assay result, run 5>
0.236

$$$$
>  <molecule>
Cc1c(C)c2c(c(C)c1O)CC[C@@](C)(CCC[C@H](C)CCC[C@H](C)CCCC(C)C)O2 [T alpha, alpha tocopherol]

>  <MTS assay result, run 5>
0.352

$$$$

Moving on to the next molecule.
Request: Need MTS assay result, run 5, item Cc1c(O)cc2c(c1C)O[C@](C)(CCC[C@H](C)CCC[C@H](C)CCCC(C)C)CC2 [T gamma]
Response: 0.289

Each recorded value in this set is attributed to patent US8846653B2.
